The reported numbers originate from the supplement of paper PMC7877785.

test: self-splicing fitness, log relative to wild type (ln ratio); higher = more splicing; Tetrahymena group I intron in knt gene, E. coli kanamycin selection, DiMSum; sequences stand for … in CUCUCU…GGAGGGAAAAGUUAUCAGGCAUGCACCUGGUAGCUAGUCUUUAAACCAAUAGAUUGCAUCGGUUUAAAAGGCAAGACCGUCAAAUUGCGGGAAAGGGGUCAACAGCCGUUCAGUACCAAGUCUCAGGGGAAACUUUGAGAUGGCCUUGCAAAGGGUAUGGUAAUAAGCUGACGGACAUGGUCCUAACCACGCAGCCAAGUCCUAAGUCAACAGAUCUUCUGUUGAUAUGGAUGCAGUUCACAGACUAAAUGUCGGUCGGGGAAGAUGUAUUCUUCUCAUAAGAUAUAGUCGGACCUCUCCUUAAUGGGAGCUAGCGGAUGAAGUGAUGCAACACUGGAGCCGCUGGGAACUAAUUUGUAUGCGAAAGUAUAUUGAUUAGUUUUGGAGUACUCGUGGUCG; settings: 30 °C;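 note: selection with 25 µg/mL kanamycin versus none on LB agar overnight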
Task for the reader: assign each of the following sequences its reported self-splicing fitness (ln).
API doc: respond with a numeric literal and nothing else, no unit.

[Q] Which self-splicing fitness (ln) is reported for this sequence? GUACAGCAAUAUUACGGUUG
[A] -3.9

[Q] One more sequence: UCAUAGCAAUAUUACGGAGU
[A] -3.88

[Q] One more sequence: UAGCAGCAAUAUUACGUGUA
[A] -1.17

[Q] One more sequence: UGCGAGCAAUAUUACGGCAU
[A] -2.64

[Q] One more sequence: CUUGAGCAAUAUUACGACAU
[A] -3.58

[Q] One more sequence: GAUGAGCAAUAUUACGACAU
[A] -1.8

[Q] One more sequence: AAACAGCAAUAUUACGAGGC
[A] -3.32

[Q] One more sequence: AUCUAGCAAUAUUACGUCAU
[A] -1.41

[Q] One more sequence: UGUAAGCAAUAUUACGUCUU
[A] -1.74

[Q] One more sequence: UAUUAGCAAUAUUACGAUCU
[A] -0.883

[Q] One more sequence: UACCAGCAAUAUUACGACUA
[A] -0.413

[Q] One more sequence: GAUGAGCAAUAUUACGGUGU
[A] -3.67

[Q] One more sequence: UACCAGCAAUAUUACGUCGA
[A] -0.651

[Q] One more sequence: CGAAAGCAAUAUUACGCUGU
[A] -3.2

[Q] One more sequence: GCUUAGCAAUAUUACGUAUC
[A] -1.32

[Q] One more sequence: UGUAAGCAAUAUUACGAUCC
[A] -1.49

[Q] One more sequence: AUGCAGCAAUAUUACGCGAU
[A] -3.67

[Q] One more sequence: CACGAGCAAUAUUACGCAAA
[A] -3.96

[Q] One more sequence: AUUAAGCAAUAUUACGCUUG
[A] -1.87

[Q] One more sequence: CUUGAGCAAUAUUACGGGUG
[A] -1.24

[Q] One more sequence: UACUAGCAAUAUUACGGUGG
[A] -2.1

[Q] One more sequence: CAAAAGCAAUAUUACGUCAC
[A] -3.63

[Q] One more sequence: CUCAAGCAAUAUUACGAAAC
[A] -3.86

[Q] One more sequence: UAGCAGCAAUAUUACGCAUC
[A] -4.15

[Q] One more sequence: ACGGAGCAAUAUUACGGCUG
[A] -2.87

[Q] One more sequence: UAUCAGCAAUAUUACGAUCC
[A] -1.32

[Q] One more sequence: ACCGAGCAAUAUUACGACUA
[A] -2.66

[Q] One more sequence: UCAAAGCAAUAUUACGGCCA
[A] -0.546

[Q] One more sequence: CGCUAGCAAUAUUACGCAUU
[A] -3.69

[Q] One more sequence: GAUAAGCAAUAUUACGUACC
[A] -0.984

[Q] One more sequence: UGCGAGCAAUAUUACGACAG
[A] -2.55

[Q] One more sequence: AAGCAGCAAUAUUACGCUCA
[A] 0.661

[Q] One more sequence: ACGUAGCAAUAUUACGAUCC
[A] -1.03

[Q] One more sequence: CGUAAGCAAUAUUACGUGCG
[A] -2.95

[Q] One more sequence: UAAUAGCAAUAUUACGCCUU
[A] -3.48

[Q] One more sequence: AUGCAGCAAUAUUACGCACG
[A] -1.46

[Q] One more sequence: GUGCAGCAAUAUUACGUUAC
[A] -3.66

[Q] One more sequence: CGUUAGCAAUAUUACGGUUA
[A] -1.55

[Q] One more sequence: ACCCAGCAAUAUUACGGGAA
[A] -0.235

[Q] One more sequence: GAGAAGCAAUAUUACGCUCA
[A] -1.29

[Q] One more sequence: GUCGAGCAAUAUUACGAGCG
[A] -2.88

[Q] One more sequence: UGCAAGCAAUAUUACGUCGA
[A] -1.09

[Q] One more sequence: UCAUAGCAAUAUUACGCUUG
[A] -1.97

[Q] One more sequence: CUACAGCAAUAUUACGCCGU
[A] -3.2

[Q] One more sequence: CAGUAGCAAUAUUACGCUGA
[A] -2.07

[Q] One more sequence: CUGGAGCAAUAUUACGCCGA
[A] -1.18

[Q] One more sequence: GGAGAGCAAUAUUACGAGUU
[A] -4

[Q] One more sequence: CAGCAGCAAUAUUACGUUCU
[A] -2.35

[Q] One more sequence: GAACAGCAAUAUUACGGGCG
[A] -1.68

[Q] One more sequence: AGAAAGCAAUAUUACGAUCU
[A] -2.88

[Q] One more sequence: CGCGAGCAAUAUUACGUAAG
[A] -1.78

[Q] One more sequence: UACAAGCAAUAUUACGAAGU
[A] -4.09

[Q] One more sequence: AAGUAGCAAUAUUACGGAGC
[A] -3.21

[Q] One more sequence: UAGUAGCAAUAUUACGCGUA
[A] -1.53

[Q] One more sequence: GGAUAGCAAUAUUACGUAGC
[A] -3.55

[Q] One more sequence: AUGUAGCAAUAUUACGGAGC
[A] -4.16

[Q] One more sequence: AGUAAGCAAUAUUACGCGUG
[A] -3.44

[Q] One more sequence: UCCGAGCAAUAUUACGGGCU
[A] -4.07

[Q] One more sequence: UGCAAGCAAUAUUACGAGAA
[A] -2.52

[Q] One more sequence: CAGUAGCAAUAUUACGCGGA
[A] -2.93

[Q] One more sequence: CCAGAGCAAUAUUACGAAUC
[A] -3.76

[Q] One more sequence: GGGUAGCAAUAUUACGCCUU
[A] -1.56

[Q] One more sequence: UCAUAGCAAUAUUACGAUUA
[A] -0.984

[Q] One more sequence: UACCAGCAAUAUUACGUCCU
[A] -1.79

[Q] One more sequence: CAUUAGCAAUAUUACGUCUC
[A] -3.28

[Q] One more sequence: ACCUAGCAAUAUUACGAUCG
[A] -1.19
